- Test system: L1210/Dx cells
- assayProtocol: Cross-resistance studies: growth inhibition of doxorubicin-resistant L1210/Dx cells
- Assay type: cell-based
- experimentalParameters: Mus musculus; L1210/Dx (doxorubicin resistant)
Measured IC50, listed per entry for reference.

A selection of reference data follows.
COc1cc(NS(C)(=O)=O)ccc1Nc1c2ccccc2nc2ccccc12 [m-AMSA]: 61 nM
COc1c(OC)c(OC)c2c(c1O)c(=O)c1ccc(O)c(OC)c1n2C [Compound 31, Glyfoline]: 3310 nM

From here, focus on the item given below.
Please state recorded IC50 (tested on L1210/Dx cells) of COc1cccc2c1C(=O)c1c(O)c3c(c(O)c1C2=O)C[C@@](O)(C(=O)CO)C[C@@H]3O[C@H]1C[C@H](N)[C@H](O)[C@H](C)O1 [Doxorubicin]
730 nM
